Test: Safety (body weight, tolerance) in the HPAF-II model
Type: in vivo, Balb/c nude female mice
Conditions: Group 2, 60 mg/kg i.p. QD×5/week×2 weeks; day 14
Description: Balb/c nude female mice were subcutaneously inoculated with human-derived pancreatic cancer HPAF-II cells so as to establish a subcutaneous transplantation model of human-derived pancreatic cancer. […]
assay.readout: Body weight (g)

INSERT INTO results (compound, endpoint_result) VALUES
  ('O=P1(NCCCl)OCCCN1CCCl (stereo not shown) [Ifosfamide, reference compound]', 23.6);

* * *

Test: Safety (body weight, tolerance) in the LU11693 model
Assay type: in vivo, BALB/c nude mice
Conditions: Group 03, 10 mg/kg tail vein QW×3; day 11
assay.readout: Body weight (g)

INSERT INTO assay_data (molecule, assay_readout, units_label, endpoint_result) VALUES
  ('O=[N+]([O-])c1ccc(C(OP(=O)(N2CC2)N2CC2)C(F)(F)F)cc1Oc1ccc(-c2ccc(F)cc2)c(F)c1 (stereo not shown)', 'Body weight', 'g', 23.3);
